Quick record: MIC, Staphylococcus aureus (ATCC25923).
Where a name gives a salt, the structure may show the parent alone.
property-measured: MIC (µg/mL)

molecule: FC1(F)CCC(Cn2cc(CCCNC3CCNCC3)c3cc(Br)ccc32)CC1 [Compound 295, hydrochloride salt]
property-measured: MIC
reading-unit: µg/mL
result-modifier: =
observed: 9

molecule: Cc1ccccc1-c1ccc2c(c1)c(CC(=O)NC1CCC(N)CC1)cn2CC1CCCCC1.Cl (stereo not drawn)
property-measured: MIC
reading-unit: µg/mL
result-modifier: =
observed: 8

molecule: Cc1cccc(C(CC(=O)N[C@H]2CC[C@H](N)CC2)c2cn(C(C)C)c3ccccc23)c1.Cl (stereo partly drawn)
property-measured: MIC
reading-unit: µg/mL
result-modifier: =
observed: 128

molecule: Cl.N[C@H]1CC[C@H](NC(=O)CC(c2cn(CC3CCCCC3)c3ccccc23)C2CCOCC2)CC1 (stereo partly drawn)
property-measured: MIC
reading-unit: µg/mL
result-modifier: =
observed: 128

molecule: Cc1cccc(C(CC(=O)NCCC2CCNCC2)c2cn(Cc3ccccc3)c3ccccc23)c1.Cl (stereo not drawn)
property-measured: MIC
reading-unit: µg/mL
result-modifier: =
observed: 66

molecule: Cc1cccc(C(CC(=O)NCCN2CCCC2)c2cn(Cc3ccccc3)c3ccccc23)c1.Cl (stereo not drawn)
property-measured: MIC
reading-unit: µg/mL
result-modifier: =
observed: 32

molecule: Cc1cccc(C(CC(=O)NC2CCC(C(=O)NO)CC2)c2cn(CC3CCCCC3)c3ccccc23)c1 (stereo not drawn) [Compound 247, hydrochloride salt]
property-measured: MIC
reading-unit: µg/mL
result-modifier: >
observed: 512

molecule: Cc1cc(F)cc(C(CC(=O)NC2CCC(N)CC2)c2cn(CC3CCCCC3)c3ccccc23)c1.Cl (stereo not drawn)
property-measured: MIC
reading-unit: µg/mL
result-modifier: =
observed: 8

molecule: NC1CCC(NC(=O)CC(c2cnc3ccccc3c2)c2cn(CC3CCCCC3)c3ccccc23)CC1 (stereo not drawn) [Compound 142, hydrochloride salt]
property-measured: MIC
reading-unit: µg/mL
result-modifier: =
observed: 8

molecule: N[C@H]1CC[C@H](NCCc2cn(CC3CCCCC3)c3ccc(Br)cc23)CC1 [Compound 197, hydrochloride salt]
property-measured: MIC
reading-unit: µg/mL
result-modifier: =
observed: 4

molecule: Cc1cccc(C(CC(=O)NC2CCC(N)CC2)c2cn(CC3CCCCC3)c3ccc(C#N)cc23)c1.Cl (stereo not drawn)
property-measured: MIC
reading-unit: µg/mL
result-modifier: =
observed: 9

molecule: Cc1cccc(C(CC(=O)NCCN(C)C)c2cn(CC3CCCCC3)c3ccccc23)c1.Cl (stereo not drawn)
property-measured: MIC
reading-unit: µg/mL
result-modifier: =
observed: 16

molecule: Cc1cccc(C(CC(=O)NCC2CNCCO2)c2cn(CC3CCCCC3)c3ccccc23)c1.Cl (stereo not drawn)
property-measured: MIC
reading-unit: µg/mL
result-modifier: =
observed: 16

molecule: Cc1cccc(C(CC(=O)NC2CCNCC2)c2cn(CC3CCCCC3)c3ccc(F)cc23)c1.Cl (stereo not drawn)
property-measured: MIC
reading-unit: µg/mL
result-modifier: =
observed: 8

molecule: Cl.N[C@H]1CC[C@H](NC(=O)CCc2cn(Cc3ccccc3)c3ccccc23)CC1
property-measured: MIC
reading-unit: µg/mL
result-modifier: =
observed: 256

molecule: Cc1cccc(C(CC(=O)NC2CCC(N)CC2)c2cn(CC3CCCCC3)c3c(Br)cccc23)c1.Cl (stereo not drawn)
property-measured: MIC
reading-unit: µg/mL
result-modifier: =
observed: 150

molecule: Cc1ccc(C(CC(=O)NC2CCC(N)CC2)c2cn(CC3CCCCC3)c3ccccc23)cc1.Cl (stereo not drawn)
property-measured: MIC
reading-unit: µg/mL
result-modifier: =
observed: 8

molecule: Cc1cccc(C(CC(=O)N[C@H]2CC[C@H](N)CC2)c2cn(CC3CCCCC3)c3ccc(F)cc23)c1.Cl (stereo partly drawn)
property-measured: MIC
reading-unit: µg/mL
result-modifier: =
observed: 8

molecule: Cc1cccc(C(CC(=O)NC2CCC(NC(=N)N)CC2)c2cn(CC3CCCCC3)c3ccccc23)c1 (stereo not drawn) [Compound 201, hydrochloride salt]
property-measured: MIC
reading-unit: µg/mL
result-modifier: =
observed: 2

molecule: Cc1cccc(C(CC(=O)NCC2CCNCC2)c2cn(Cc3ccccc3)c3ncccc23)c1.Cl (stereo not drawn)
property-measured: MIC
reading-unit: µg/mL
result-modifier: >
observed: 512

molecule: Cc1cccc(C(CCN[C@H]2CC[C@H](N)CC2)c2cn(CC3CCCCC3)c3ccccc23)c1 (stereo partly drawn) [Compound 199, hydrochloride]
property-measured: MIC
reading-unit: µg/mL
result-modifier: =
observed: 2
